Record form. Attribute: melting point. Fill in for each entry.

// melting point lookup, key: O=C(CCCCCNC(=O)C/C=C/c1ccccc1)NO
127 to 128 °C

// melting point lookup, key: O=C(NCC1CN(Cc2ccccc2)CCO1)c1cccc2c1OCO2 (configuration not stated)
144 to 146 °C

// melting point lookup, key: O=C1CCCCCN1C(=O)c1ccccc1
69 °C

// melting point lookup, key: N#CCc1ccc2c(c1)Cc1cccnc1O2
166 to 167 °C

// melting point lookup, key: CCOc1ccc2[nH]c(=O)sc2c1
147 °C

// melting point lookup, key: C#CCOC(=O)c1ccc(O)cc1O
104 to 106 °C

// melting point lookup, key: COc1cc(N)c(Cl)cc1C(=O)NCC1CCN(CCCSc2ccccc2)CC1
146 to 148 °C

// melting point lookup, key: COCC1CN(c2ccc3nc(C(O)CCCO)sc3c2)C(=O)O1 (configuration not stated)
137 to 138 °C

// melting point lookup, key: CC(C)(C)C(=O)Cn1cncn1
62 to 64 °C

// melting point lookup, key: CCCCc1nc2c(N)nc3ccccc3c2o1
96 to 98 °C

// melting point lookup, key: COc1ccnc(CCc2nc3cc(-c4ccc(OC)c(OC)c4)cnc3[nH]2)c1
185 to 186 °C

// melting point lookup, key: Brc1ccc2nc(N3CCOCC3)nn2c1
136 °C

Attribution: a melting point compilation (Tetko et al.; mined from patent text by program, amines drawn as free bases though some values may be those of a salt)
